- assayedSystem: Mushroom tyrosinase (Agaricus bisporus)
- Sequence (C7FF04 1-392): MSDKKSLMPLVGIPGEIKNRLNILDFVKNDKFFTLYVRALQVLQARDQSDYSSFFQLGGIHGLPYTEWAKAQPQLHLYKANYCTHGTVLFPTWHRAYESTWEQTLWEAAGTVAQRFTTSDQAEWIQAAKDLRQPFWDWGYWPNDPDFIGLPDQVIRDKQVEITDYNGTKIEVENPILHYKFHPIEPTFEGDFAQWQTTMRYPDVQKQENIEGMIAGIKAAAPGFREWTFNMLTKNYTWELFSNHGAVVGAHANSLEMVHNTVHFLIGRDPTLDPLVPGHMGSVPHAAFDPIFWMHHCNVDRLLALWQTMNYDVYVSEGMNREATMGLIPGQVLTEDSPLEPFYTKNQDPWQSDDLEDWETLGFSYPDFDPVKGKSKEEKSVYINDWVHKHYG
- protocolSummary: Mushroom tyrosinase inhibitory assay, L-tyrosine as substrate
- Type: biochemical
reportedMetric: IC50 (nM)

INSERT INTO assay_data (chemicalstructure, assayedsystem, reportedmetric, unitofmeasurement, readoutnumber) VALUES
  ('CC1(C)C=Cc2c(ccc3c2OC[C@@H](c2ccc(O)cc2O)C3)O1', 'Mushroom tyrosinase (Agaricus bisporus)', 'IC50', 'nM', 1500),
  ('Oc1ccc(/C=C/c2cc(O)cc(O)c2)cc1', 'Mushroom tyrosinase (Agaricus bisporus)', 'IC50', 'nM', 23000),
  ('Oc1cc(O)cc(/C=C/c2ccc(O)cc2O)c1', 'Mushroom tyrosinase (Agaricus bisporus)', 'IC50', 'nM', 2500);

----------
- protocolSummary: DPPH free radical-scavenging capacity assay
- runParameters: 0.1 mmol/L DPPH, 30 min, absorbance 517 nm; read-out: IC50 of antioxidant solutions (DPPH scavenging / DPPH clearance rate)
pIC50: −log10 of the molar value.
We begin with a simple list: items and their reported pIC50.
reportedMetric: pIC50

INSERT INTO measurements (molecule, readoutnumber) VALUES
  ('CC1(C)C=Cc2c(ccc3c2OC[C@@H](c2ccc(O)cc2O)C3)O1', 3.34),
  ('CC(c1ccccc1)c1ccc(O)cc1O (stereo not shown)', 3.92),
  ('Oc1ccc(/C=C/c2cc(O)cc(O)c2)cc1', 3.85),
  ('Oc1cc(O)cc(/C=C/c2ccc(O)cc2O)c1', 4.12);

----------
- assayedSystem: Mushroom tyrosinase (Agaricus bisporus)
- protocolSummary: Mushroom tyrosinase inhibitory assay, L-tyrosine as substrate
- Type: biochemical
- runParameters: L-Tyrosine as substrate; read-out: IC50, tyrosinase activity, single compounds
pIC50: −log10 of the molar value.
reportedMetric: pIC50

INSERT INTO results (molecule, readoutnumber) VALUES
  ('CC(c1ccccc1)c1ccc(O)cc1O (stereo not shown) [PR, Phenylethylresorcinol]', 6.55);
